Please respond with reported pest or weed control at 121.5 g/ha for every item in the list.
# System: Mycosphaerella graminicola; Anamorph: Septoria tritici
# assay-details: Fungicidal activity: Leaf Blotch of Wheat (SEPTTR)
# Type: in vivo
# condition-summary: Zymoseptoria tritici, 72 h; Low Volume (121.5 g/H), 3 Day Curative, wheat leaf blotch; read-out: SEPTTR 3 DC disease control

# pest or weed control at 121.5 g/ha lookup, item CCOCC(=O)OCOc1c(OC)ccnc1C(=O)N[C@H]1COC[C@H](CCCc2ccccc2)[C@@H](Cc2ccc(OC(F)(F)F)cc2)[C@H](C)OC1=O
< 70%

Also, CCOCC(=O)OCOc1c(OC)ccnc1C(=O)N[C@H]1COC[C@H](Cc2ccccc2)[C@@H](Cc2ccccc2)[C@H](C)OC1=O please.
> 70%

Also, COc1cccc(C[C@H]2COC[C@H](NC(=O)c3nccc(OC)c3OCOC(C)=O)C(=O)O[C@@H](C)[C@@H]2Cc2cccc(OC)c2)c1 please.
> 70%

Also, COc1ccnc(C(=O)N[C@H]2COC[C@H](Cc3ccc(Cl)cc3)[C@@H](C3CCCC3)[C@H](C)OC2=O)c1OC(=O)C(C)C please.
> 70%

Also, COc1ccnc(C(=O)N[C@H]2COC[C@H](Cc3ccccc3)[C@@H](Cc3ccc(F)cc3)[C@H](C)OC2=O)c1OCOC(C)=O please.
> 70%

Also, CCC[C@H]1COC[C@H](NC(=O)c2nccc(OC)c2OC(C)=O)C(=O)O[C@@H](C)[C@@H]1c1ccccc1 please.
> 70%

Also, CCC[C@H]1COC[C@H](NC(=O)c2nccc(OC)c2OCOC(=O)C(C)C)C(=O)O[C@@H](C)[C@@H]1Cc1ccccc1 please.
> 70%

Also, COc1ccnc(C(=O)N[C@H]2COC[C@H](CCCc3ccccc3)[C@@H](Cc3ccccc3)[C@H](C)OC2=O)c1OC(C)=O please.
> 70%

Also, COc1ccnc(C(=O)N[C@H]2COC[C@H](CCC(C)C)[C@@H](CCc3ccccc3)[C@H](C)OC2=O)c1OCOC(=O)C(C)C please.
> 70%

Also, CCOCC(=O)OCOc1c(OC)ccnc1C(=O)N[C@H]1COC[C@H](CCC(C)C)[C@@H](CCc2ccccc2)[C@H](C)OC1=O please.
> 70%

Also, COc1ccnc(C(=O)N[C@H]2COC[C@H](CCCc3ccccc3)[C@@H](Cc3ccc(OC(F)(F)F)cc3)[C@H](C)OC2=O)c1OC(C)=O please.
< 70%

Also, COc1ccnc(C(=O)N[C@H]2COC[C@H](Cc3ccc(Cl)cc3)[C@@H](CC(C)C)[C@H](C)OC2=O)c1OCOC(C)=O please.
> 70%

Also, COc1ccnc(C(=O)N[C@H]2COC[C@H](Cc3ccc(Cl)cc3)[C@@H](C3CCCC3)[C@H](C)OC2=O)c1OCOC(C)=O please.
< 70%

Also, COc1ccnc(C(=O)N[C@H]2COC[C@H](Cc3ccc(Cl)cc3)[C@@H](Cc3ccc(OC(F)(F)F)cc3)[C@H](C)OC2=O)c1OCOC(C)=O please.
> 70%

Also, COc1ccnc(C(=O)N[C@H]2COC[C@H](c3ccccc3)[C@@H](c3ccccc3)[C@H](C)OC2=O)c1OCOC(C)=O please.
> 70%

Also, COc1ccnc(C(=O)N[C@H]2COC[C@H](Cc3ccc(C(F)(F)F)cc3)[C@@H](Cc3ccccc3)[C@H](C)OC2=O)c1OCOC(C)=O please.
< 70%

Also, COc1ccnc(C(=O)N[C@H]2COC[C@H](CC3CC3)[C@@H](c3ccccc3)[C@H](C)OC2=O)c1OCOC(=O)C(C)C please.
> 70%

Also, COc1ccnc(C(=O)N[C@H]2COC[C@H](CCCc3ccccc3)[C@@H](Cc3ccccc3)[C@H](C)OC2=O)c1OCOC(=O)C(C)C please.
> 70%

Also, COc1ccnc(C(=O)N[C@H]2COC[C@H](CCCc3ccccc3)[C@@H](CC(C)C)[C@H](C)OC2=O)c1OC(C)=O please.
> 70%

Also, CCOCC(=O)OCOc1c(OC)ccnc1C(=O)N[C@H]1COC[C@H](Cc2ccccc2)[C@@H](CCC(C)C)[C@H](C)OC1=O please.
> 70%

Also, COc1ccnc(C(=O)N[C@H]2COC[C@H](Cc3ccc(C(F)(F)F)cc3)[C@@H](CC(C)C)[C@H](C)OC2=O)c1OCOC(C)=O please.
> 70%

Also, COc1ccnc(C(=O)N[C@H]2COC[C@H](CCC(C)C)[C@@H](Cc3ccccc3)[C@H](C)OC2=O)c1OCOC(C)=O please.
> 70%

Also, CCC[C@H]1COC[C@H](NC(=O)c2nccc(OC)c2OCOC(C)=O)C(=O)O[C@@H](C)[C@@H]1CC(C)C please.
< 70%

Also, COc1ccnc(C(=O)N[C@H]2COC[C@H](Cc3ccc(C(F)(F)F)cc3)[C@@H](CC(C)C)[C@H](C)OC2=O)c1OC(C)=O please.
> 70%

Also, COc1ccnc(C(=O)N[C@H]2COC[C@H](Cc3ccccc3)[C@@H](C3CCCC3)[C@H](C)OC2=O)c1OC(C)=O please.
> 70%
